B1: Segment polarity protein dishevelled homolog DVL-3, residues 2 to 81; numbered along this chain, Q92997 (parent)
chain: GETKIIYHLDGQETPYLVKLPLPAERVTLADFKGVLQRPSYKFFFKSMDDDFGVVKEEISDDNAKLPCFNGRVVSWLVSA

# Variants of: B1
# METHOD: abundance fitness (aPCA) (normalised: wild type 0, dead -1); higher = more abundant; growth selection in yeast, the domain comes from the species named
# RUN CONDITIONS: Homo sapiens
Label rule, in plain words: abundance fitness of -0.6 and up is rule met, under -0.6 is rule not met.

Take a look at these entries with their results.
                             sequence_entry  label_value
0  GETKIIYHLDGQETPYLVKLILPAERVTLADFKGVLQRPSYKFFFKSMDDDFGVVKEEISDDNAKLPCFNGRVVSWLVSA [P21I]     rule met
1  GETKIIYHLDGQETPYLVKLPLPAERVTLADFKGVLQRPSYKFFFKSMDDGFGVVKEEISDDNAKLPCFNGRVVSWLVSA [D51G]     rule met
2  GETKIIYHLDGQETPYLVKLPLPAERVTLADFKGVLQRPSYKFFFKSGDDDFGVVKEEISDDNAKLPCFNGRVVSWLVSA [M48G]     rule met

Read the next record carefully.
Does the reported abundance fitness for GETKIIYHLDGQETPYLVKLPLPAERVTLADFKGVLQRPSYKFFFKSMDDDFGVVKEEISDDNAKLACFNGRVVSWLVSA [P67A] fall at or above the -0.6 mark? rule not met
